- Tested on: K. pneumoniae
- method: Bacterial inhibition, MIC in brain heart infusion broth
- Type: cell-based
- measurement.parameters: Klebsiella pneumoniae, read-out: MIC (minimal inhibitory concentration)
Field: MIC. Provide a value for each of the molecules that follow.
Give bare numbers, in mg/L.

Examples with answers:
molecule | measurement.unit | result
COC1=C2CC(C)CC(OC)C(O)C(C)/C=C(\C)C(OC(N)=O)C(OC)/C=C\C=C(/C)C(=O)NC(=C(C=NN3CCN(C)CC3)C1=O)C2=O (centres unmarked) [II] | mg/L | 500
COC1=C2CC(C)CC(OC)C(O)C(C)/C=C(\C)C(OC(N)=O)C(OC)/C=C\C=C(/C)C(=O)NC(=C(C=NN3CCN(Cc4ccccc4)CC3)C1=O)C2=O (centres unmarked) [V] | mg/L | 500

Shifting focus to the molecule that follows.
Enquiry: Please give the measured MIC for this molecule: COC1=C2CC(C)CC(OC)C(O)C(C)/C=C(\C)C(OC(N)=O)C(OC)/C=C\C=C(/C)C(=O)NC(=C(C=NC(C)(C)C)C1=O)C2=O (centres unmarked) [Example I]
Return: 500

// provenance: patent US4075339A
